# System: S. aureus Smith
# experiment description: Infection Test: mice infected intraperitoneally with S. aureus Smith
# Assay type: in vivo
# assay conditions: ICR mice, 5 per group; S. aureus Smith i.p.; 10 mg/kg subcutaneously once at 1 hour after infection; survivors recorded 3 days after infection
Counter-ions that a name gives are not always drawn.
Reported Number of surviving mice is given for each of the following compounds.
measurement kind: Number of surviving mice

- compound: "COc1ccc2ncc(=O)n(CCN3CCC(NCc4ccc5c(n4)NC(=O)CS5)CC3)c2c1"
  test target: "S. aureus Smith"
  number: 5
- compound: "Cc1ccc(CNC2CCN(CCn3c(=O)cnc4ccc(F)cc43)CC2)cc1F [Example 367, hydrochloride]"
  test target: "S. aureus Smith"
  number: 5
- compound: "COCCNC(=O)c1cc(=O)n(CCN2CCC(NCc3ccc4c(c3)OCCO4)CC2)c2cc(OC)ccc12 [Example 141, hydrochloride]"
  test target: "S. aureus Smith"
  number: 5

----------
log10(MIC) values for the molecules below.
# System: Staphylococcus aureus (S. aureus FDA209P)
# experiment description: Sensitivity Test 1: antibacterial activity (MIC) by micro-dilution method
# Type: cell-based
# assay conditions: FDA209P
Counter-ions that a name gives are not always drawn.
measurement kind: log10(MIC) (log10 of the value in µg/mL)

- molecule: "CNC(=O)c1cc(OC)cc2c1ccc(=O)n2CCN1CCC(NCc2ccc3c(c2)OCCO3)CC1 [Example 186, hydrochloride]"
  measurement kind: "log10(MIC)"
  number: -0.60
- molecule: "O=c1cnc2ccc(F)cc2n1CCN1CCC(NCc2cc3ccccc3s2)CC1 [Example 349, hydrochloride]"
  measurement kind: "log10(MIC)"
  number: -1.81
- molecule: "CCc1ccc(CNC2CCN(CCn3c(=O)cc(C(=O)NC)c4ccc(OC)cc43)CC2)cc1 [Example 339, hydrochloride]"
  measurement kind: "log10(MIC)"
  number: -1.20
- molecule: "CNC(=O)c1cc(=O)n(CCN2CCC(NCc3cc4ccccc4s3)CC2)c2cc(OC)ccc12 [Example 343, hydrochloride]"
  measurement kind: "log10(MIC)"
  number: -0.90
- molecule: "COc1ccc2ncc(=O)n(CCN3CCC(NCc4ccc5ccccc5c4)CC3)c2c1 [Example 356, hydrochloride]"
  measurement kind: "log10(MIC)"
  number: -1.81
- molecule: "O=c1cnc2ccccc2n1CCN1CCC(NCc2ccc3c(c2)OCCO3)CC1 [Example 28, hydrochloride]"
  measurement kind: "log10(MIC)"
  number: -1.20
- molecule: "Cc1cc(=O)n(CCN2CCC(NCc3ccc4c(c3)OCCO4)CC2)c2cc(-n3ccnc3)ccc12 [Example 125, hydrochloride]"
  measurement kind: "log10(MIC)"
  number: -1.50
- molecule: "Nc1cc(=O)n(CCN2CCC(NCc3ccc4c(c3)OCCO4)CC2)c2ccccc12 [Example 97, hydrochloride]"
  measurement kind: "log10(MIC)"
  number: -0.90
- molecule: "COCCNC(=O)c1cc(=O)n(CCN2CCC(NCc3ccc4c(c3)OCCO4)CC2)c2cc(OC)ccc12 [Example 141, hydrochloride]"
  measurement kind: "log10(MIC)"
  number: -0.90
- molecule: "CCOc1ccc2c(C)cc(=O)n(CCN3CCC(NCc4ccc5c(c4)OCCO5)CC3)c2c1 [Example 104, hydrochloride]"
  measurement kind: "log10(MIC)"
  number: -1.20
- molecule: "COc1ccc2ncc(=O)n(CCN3CCC(NCc4ccc(C)c(F)c4)CC3)c2c1 [Example 354, hydrochloride]"
  measurement kind: "log10(MIC)"
  number: -2.11
- molecule: "O=c1cnc2ccc(F)cc2n1CCN1CCC(NCc2cc(-c3cccs3)on2)CC1 [Example 351, hydrochloride]"
  measurement kind: "log10(MIC)"
  number: -2.11
- molecule: "O=c1cnc2ccc(Br)cc2n1CCN1CCC(NCc2ccc3c(c2)OCCO3)CC1 [Example 363, hydrochloride]"
  measurement kind: "log10(MIC)"
  number: -1.50
- molecule: "COc1ccc2ncc(=O)n(CCN3CCC(NCc4ccc5c(n4)NC(=O)CO5)CC3)c2c1 [Example 400, hydrochloride]"
  measurement kind: "log10(MIC)"
  number: -1.81

----------
Recorded MIC for the following compounds
# Tested on: Staphylococcus aureus (S. aureus FDA209P)
# experiment description: Sensitivity Test 1: antibacterial activity (MIC) by micro-dilution method
# Assay type: cell-based
# assay conditions: FDA209P
Counter-ions that a name gives are not always drawn.

- compound: "CNC(=O)c1cc(=O)n(CCN2CCC(NCC#Cc3ccccc3)CC2)c2cc(OC)ccc12 [Example 344, hydrochloride]"
  reading unit: "µg/mL"
  MIC: 0.125
- compound: "Cc1ccc(CNC2CCN(CCn3c(=O)cnc4ccc(F)cc43)CC2)cc1F [Example 367, hydrochloride]"
  reading unit: "µg/mL"
  MIC: 0.0156
- compound: "O=C1CSc2ccc(CNC3CCN(CCn4c(=O)cnc5ccc(F)cc54)CC3)nc2N1 [Example 369, hydrochloride]"
  reading unit: "µg/mL"
  MIC: 0.0313

Source of measurements: patent US8524738B2
